Hello, the source for this data is patent US20250213569A1, in case you need it.

# testedOn: SARS-CoV2 NSP14/NSP10 exonuclease (Severe acute respiratory syndrome coronavirus 2 (2019-nCoV) (SARS-CoV-2), UniProt P0DTD1)
# testName: biochemical
# conditionSummary: read-out: SARS-CoV2 IC50
parameter: pIC50
// pIC50: -log10(molar conc.)

input: Please list pIC50 recorded for the compound CC(C)=CCc1c(O)ccc(C(=O)/C=C/c2ccc(O)cc2)c1O [Compound 77, Isobavachalcone]
output: 4.76

input: Please list pIC50 recorded for the compound CC(C)=CCOc1ccc(/C=C/C(=O)c2ccc(OCC=C(C)C)cc2OCC(=O)O)cc1 [Compound 68, Sofalcone, reference compound]
output: 4.66
